Data origin: ChEMBL document CHEMBL5244266

Listing of recorded IC50 by entry.
System: L5178Y
ASSAY: Cytotoxicity against multi-drug resistant mouse L5178Y cells transfected with ABCB1 gene assessed as inhibition of cell growth incubated for 24 hrs by MTT assay
Format: functional, cell-based

{"columns": ["MOLECULE", "SUBJECT OF TEST", "IC50"],
 "data": [
  ["COc1ccc([C@@H]2C/C(=N\\NC(=O)OCc3ccccc3)c3c(O)cc(OC)cc3O2)cc1", "L5178Y", "7.2 µM"],
  ["COc1cc(O)c2c(c1)O[C@H](c1ccc(O)cc1)C/C2=N\\NC(=O)c1ccc(N)cc1", "L5178Y", "≥ 11.3 µM"],
  ["O=C1C[C@@H](c2ccc(O)cc2)Oc2cc(O)cc(O)c21", "L5178Y", "≥ 11.3 µM"],
  ["N/N=C1\\C[C@@H](c2ccc(O)cc2)Oc2cc(O)cc(O)c21", "L5178Y", "≥ 11.3 µM"],
  ["COc1cc(O)c2c(c1)O[C@H](c1ccc(O)cc1)C/C2=N\\Nc1ccccc1", "L5178Y", "≥ 11.3 µM"],
  ["COc1cc(O)c2c(c1)O[C@H](c1ccc(OCC(O)CN3CCCCC3)cc1)CC2=O (stereo partly specified)", "L5178Y", "17.4 µM"]
]}
